target: T1, cynomolgus monkey CD8A on primary cynomolgus monkey CD8+ T cells (cynomolgus monkey, UniProt P01732 23-235 (human entry)); test: flow cytometry, cyno CD8+ T cells, 2 uM FN3
T1 construct: also called Cyno CD8alpha
T1 sequence (P01732 other isoform, or with tags, fused parts or gaps limits assumed): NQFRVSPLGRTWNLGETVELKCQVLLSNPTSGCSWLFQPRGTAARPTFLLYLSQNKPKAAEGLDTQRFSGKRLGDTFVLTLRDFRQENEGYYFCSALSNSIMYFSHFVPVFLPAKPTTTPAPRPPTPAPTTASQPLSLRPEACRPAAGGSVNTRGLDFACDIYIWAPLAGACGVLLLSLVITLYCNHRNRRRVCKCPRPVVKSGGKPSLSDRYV
Recorded measurements of Cyno T-cell Binding 2 uM (MFI), one per entry

# binder, value unit, Cyno T-cell Binding 2 uM (MFI)
rows = [
    ("P283BR9P1363_B6 (designed binder, FN3 domain) LPAPKNLVVSRVTEDSARLSWQRHSDAHPLFDSFLIQYQESEKVGEAIVLTVPGSERSYDLTGLKPGTEYTVSIYGVDVKWEGNRPVASNPLSAIFTT", "MFI", 37700),
    ("P282AR9P1356_A4 (designed binder, FN3 domain) LPAPKNLVVSRVTEDSARLSWVKRPNSFDSFLIQYQESEKVGEAIVLTVPGSERSYDLTGLKPGTEYTVSIYGVDVVDYEGRPRWSNPLSAIFTT", "MFI", 26400),
]
